Data origin, for the record: ChEMBL document CHEMBL3745645

Exercise: state measured GI50 for each of the compounds provided.
Tested on: MCF7
Experimental Details: Cytotoxicity against human MCF7 cells after 48 hrs by SRB assay
Assay type: functional
Study Conditions: MCF7, 48 h, pooled result: one value given for 6 cell lines, strains, targets or settings
Please state the figure in µM; there is no need to write the unit.

Reported GI50 ( `Cc1nc2cc(Nc3nc(Nc4ccc(F)cc4)nc(-c4ccc(Cl)cc4)n3)ccc2n1Cc1ccccc1` ) = 6.46

Reported GI50 ( `Cc1nc2ccc(Nc3nc(Cl)nc(Nc4ccc(F)cc4)n3)cc2n1Cc1ccccc1` ) = 4.21

Reported GI50 ( `Cc1nc2cc(Nc3nc(Nc4ccc(F)cc4)nc(-c4cccs4)n3)ccc2n1Cc1ccccc1` ) = 5.24

Reported GI50 ( `Cc1nc2ccc(Nc3nc(NCCN4CCOCC4)nc(Nc4ccc(F)cc4)n3)cc2n1Cc1ccccc1` ) = 2.04

====

Experimental Details: Cytotoxicity against human COLO205 cells after 48 hrs by SRB assay
Assay type: functional
Study Conditions: COLO 205, 48 h, pooled result: one value given for 7 cell lines, strains, targets or settings
Exercise: state measured LC50 for each of the compounds provided.
Please state the figure in µM; there is no need to write the unit.

Reported LC50 ( `Cc1nc2cc(Nc3nc(Nc4ccc(F)cc4)nc(-c4cccs4)n3)ccc2n1Cc1ccccc1` ) = 25.3

Reported LC50 ( `Cc1nc2ccc(Nc3nc(Cl)nc(Nc4ccc(F)cc4)n3)cc2n1Cc1ccccc1` ) = 54.6

Reported LC50 ( `Cc1nc2cc(Nc3nc(Nc4ccc(F)cc4)nc(N4CCN(C)CC4)n3)ccc2n1Cc1ccccc1` ) = 7.15

====

Experimental Details: Cytotoxicity against human SNB75 cells at 10 uM after 48 hrs by SRB assay
Format: functional
Study Conditions: SNB-75, 48 h, read-out: GI
Quantity Name: inhibition of growth at 10 µM (%)
Please state the figure in %; there is no need to write the unit.

Reported inhibition of growth at 10 µM ( `Cc1nc2ccc(Nc3nc(Cl)nc(Nc4ccc(F)cc4)n3)cc2n1Cc1ccccc1` ) = 4.24

Reported inhibition of growth at 10 µM ( `Cc1nc2ccc(Nc3nc(NCCN)nc(Nc4ccc(F)cc4)n3)cc2n1Cc1ccccc1` ) = 20

Reported inhibition of growth at 10 µM ( `Cc1nc2cc(Nc3nc(Nc4ccc(F)cc4)nc(Nc4ccc(F)cc4)n3)ccc2n1Cc1ccccc1` ) = 24.8

Reported inhibition of growth at 10 µM ( `Cc1nc2cc(Nc3nc(Cl)nc(Nc4ccc(F)cc4)n3)ccc2n1Cc1ccccc1` ) = 10

Reported inhibition of growth at 10 µM ( `Cc1nc2cc(Nc3nc(Nc4ccc(F)cc4)nc(Nc4ncccn4)n3)ccc2n1Cc1ccccc1` ) = 15.6

Reported inhibition of growth at 10 µM ( `Cc1nc2cc(Nc3nc(Nc4ccc(F)cc4)nc(-c4ccccc4)n3)ccc2n1Cc1ccccc1` ) = 28.4

Reported inhibition of growth at 10 µM ( `Cc1nc2ccc(Nc3nc(NCCN4CCOCC4)nc(Nc4ccc(F)cc4)n3)cc2n1Cc1ccccc1` ) = 49.4

Reported inhibition of growth at 10 µM ( `Cc1nc2cc(Nc3nc(Nc4ccc(O)cc4)nc(Nc4ccc(F)cc4)n3)ccc2n1Cc1ccccc1` ) = 15.1

Reported inhibition of growth at 10 µM ( `COc1ccc(-c2nc(Nc3ccc(F)cc3)nc(Nc3ccc4c(c3)nc(C)n4Cc3ccccc3)n2)cc1` ) = 32
